Record form. Attribute: IC50. Fill in for each entry.
# Measured On: Kv1.3 potassium channel (Homo sapiens)
# Sequence (P22001 whole entry): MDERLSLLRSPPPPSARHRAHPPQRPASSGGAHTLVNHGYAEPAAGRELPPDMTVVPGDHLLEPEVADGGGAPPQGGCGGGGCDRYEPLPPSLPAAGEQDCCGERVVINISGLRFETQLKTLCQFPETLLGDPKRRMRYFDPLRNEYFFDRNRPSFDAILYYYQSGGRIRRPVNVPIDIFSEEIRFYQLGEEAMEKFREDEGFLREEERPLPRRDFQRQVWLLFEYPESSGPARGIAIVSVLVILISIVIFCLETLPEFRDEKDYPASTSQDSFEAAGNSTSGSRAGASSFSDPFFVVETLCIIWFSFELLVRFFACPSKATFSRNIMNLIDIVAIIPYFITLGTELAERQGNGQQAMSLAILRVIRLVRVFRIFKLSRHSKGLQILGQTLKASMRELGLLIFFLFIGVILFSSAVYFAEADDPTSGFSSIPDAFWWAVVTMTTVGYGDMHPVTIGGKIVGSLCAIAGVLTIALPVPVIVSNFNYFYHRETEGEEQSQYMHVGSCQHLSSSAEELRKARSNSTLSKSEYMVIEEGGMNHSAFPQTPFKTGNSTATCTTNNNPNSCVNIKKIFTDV
# Assay Name: Kv1.3 potassium channel blocker activity, automated whole-cell patch clamp (Patchliner)
# Settings: CHO-K1 cells stably expressing Kv1.3; whole cell current inhibition; read-out: Kv1.3_IC50

Compound | IC50
COCCN1CCC(C(N)c2cc(Cl)c(Cl)cc2O)CC1 (centres unmarked) | < 10 µM
Oc1cc(Cl)c(Cl)cc1C(C1CCNCC1)n1cccn1 (centres unmarked) | < 10 µM
CN1CCC(C(N)c2cc(Cl)c(Cl)cc2O)CC1 (centres unmarked) | < 10 µM
N[C@@H](c1cc(Cl)c(Cl)cc1O)C1CCN(C(=O)COC2COC2)CC1 | < 0.5 µM
NC(c1cc(Cl)c(Cl)cc1O)C1CCN(C(=O)c2ccccc2)CC1 (centres unmarked) | < 10 µM

Give one value of IC50 per listed compound.
1. Nc1ccc(N2CCC([C@@H](N)c3cc(Cl)c(Cl)cc3O)CC2)nc1
2. C[C@H](N)C(=O)N1CCC(C(N)c2cc(Cl)c(Cl)cc2O)CC1 (some centres unmarked)
3. NC(c1c(O)cc(Cl)c(Cl)c1F)C1CCN(C(=O)[C@H](O)CO)CC1 (some centres unmarked)

Ans.
1. < 0.5 µM
2. < 0.5 µM
3. < 0.5 µM

src = patent US20230023559A1
